Answer each item with its documented Accuracy Bias Autosampler (4 °C; 8 h).
# MEASUREMENT DESCRIPTION: Stability of flavonoids and biotransformation products in mouse plasma under different handling conditions
# Assay type: in vitro ADME, mice
# RUN PARAMETERS: storage stability; medium nominal conc.
Value and unit, in that order.

Prompt line: What measured Accuracy Bias Autosampler (4 °C; 8 h) goes with C[C@@H]1O[C@@H](OC[C@H]2O[C@@H](Oc3c(-c4ccc(O)c(O)c4)oc4cc(O)cc(O)c4c3=O)[C@H](O)[C@@H](O)[C@@H]2O)[C@H](O)[C@H](O)[C@H]1O ?
Response line: 1.58%

Prompt line: What measured Accuracy Bias Autosampler (4 °C; 8 h) goes with O=C(O)Cc1ccc(O)c(O)c1 [DOPAC, 3,4-dihydroxyphenylacetic acid] ?
Response line: 0.38%

Prompt line: What measured Accuracy Bias Autosampler (4 °C; 8 h) goes with O=c1c(O)c(-c2ccc(O)cc2)oc2cc(O)cc(O)c12 ?
Response line: 0.50%

Prompt line: What measured Accuracy Bias Autosampler (4 °C; 8 h) goes with O=C(O)Cc1cccc(O)c1 [m-HPAA, meta-hydroxyphenylacetic acid] ?
Response line: 0.30%

Prompt line: What measured Accuracy Bias Autosampler (4 °C; 8 h) goes with O=C(/C=C/c1ccc(O)cc1)OC[C@H]1O[C@@H](Oc2c(-c3ccc(O)cc3)oc3cc(O)cc(O)c3c2=O)[C@H](O)[C@@H](O)[C@@H]1O [Tiliroside, tiliroside] ?
Response line: −3.45%

###

# MEASUREMENT DESCRIPTION: Stability of flavonoids and biotransformation products in mouse plasma under different handling conditions
# Assay type: in vitro ADME, mice
# RUN PARAMETERS: room temperature (25 °C), 0 h; low nominal conc. (rutin 1.75; quercetin glucoside, quercitrin, tiliroside 11.02; kaempferol 1.12; m-HPAA, p-HPAA, DOPAC 1.95 µg/mL); n = 6
TEST READOUT: Observed Conc. 0 h (µg/mL)
Only the number, expressed in µg/mL, is required.

Prompt line: What measured Observed Conc. 0 h goes with O=C(/C=C/c1ccc(O)cc1)OC[C@H]1O[C@@H](Oc2c(-c3ccc(O)cc3)oc3cc(O)cc(O)c3c2=O)[C@H](O)[C@@H](O)[C@@H]1O [Tiliroside, tiliroside] ?
Response line: 10.54

Prompt line: What measured Observed Conc. 0 h goes with O=C(O)Cc1ccc(O)c(O)c1 [DOPAC, 3,4-dihydroxyphenylacetic acid] ?
Response line: 1.98

Prompt line: What measured Observed Conc. 0 h goes with C[C@@H]1O[C@@H](OC[C@H]2O[C@@H](Oc3c(-c4ccc(O)c(O)c4)oc4cc(O)cc(O)c4c3=O)[C@H](O)[C@@H](O)[C@@H]2O)[C@H](O)[C@H](O)[C@H]1O ?
Response line: 1.74

###

# MEASUREMENT DESCRIPTION: Stability of flavonoids and biotransformation products in mouse plasma under different handling conditions
# Type: in vitro ADME, mice
# RUN PARAMETERS: room temperature (25 °C), 8 h; high nominal conc. (7.00; 44.37; 4.50; 31.25 µg/mL); n = 6
TEST READOUT: Observed Conc. 8 h (µg/mL)
Only the number, expressed in µg/mL, is required.

Prompt line: What measured Observed Conc. 8 h goes with C[C@@H]1O[C@@H](Oc2c(-c3ccc(O)c(O)c3)oc3cc(O)cc(O)c3c2=O)[C@H](O)[C@H](O)[C@H]1O [Quercitrin, quercitrin] ?
Response line: 44.96

Prompt line: What measured Observed Conc. 8 h goes with C[C@@H]1O[C@@H](OC[C@H]2O[C@@H](Oc3c(-c4ccc(O)c(O)c4)oc4cc(O)cc(O)c4c3=O)[C@H](O)[C@@H](O)[C@@H]2O)[C@H](O)[C@H](O)[C@H]1O [Rutin, rutin] ?
Response line: 7.17

Prompt line: What measured Observed Conc. 8 h goes with O=C(/C=C/c1ccc(O)cc1)OC[C@H]1O[C@@H](Oc2c(-c3ccc(O)cc3)oc3cc(O)cc(O)c3c2=O)[C@H](O)[C@@H](O)[C@@H]1O [Tiliroside, tiliroside] ?
Response line: 44.65

Prompt line: What measured Observed Conc. 8 h goes with O=C(O)Cc1ccc(O)c(O)c1 [DOPAC, 3,4-dihydroxyphenylacetic acid] ?
Response line: 31.64

Prompt line: What measured Observed Conc. 8 h goes with O=C(O)Cc1ccc(O)cc1 [p-HPAA, para-hydroxyphenylacetic acid] ?
Response line: 31.64
